Values were extracted from patent US20220144815A1.

- assay.text: Log P by HPLC on reversed phase columns, method [a] (EEC directive 79/831 Annex V.A8)
- Type: physicochemical
- recorded.conditions: reversed phase HPLC column; method [a], HPLC on reversed phase columns; read-out: logP
assay.endpoint: chromatographic logP

I. CCC(Nc1ncc(-c2nnc(C(F)F)o2)cn1)c1ccc(Cl)cc1 (racemic)
II. CC(C)(Nc1ncc(-c2nnc(C(F)F)o2)cn1)c1ccccn1
Between item I and item II , which reported chromatographic logP is smaller? Please identify the chosen entry by its label.
II
(II: 1.11, I: 3.58)

----------
- Tested on: Puccinia recondita
- assay.text: Example D: in vivo preventive test (brown rust on wheat)
- recorded.conditions: 264 h, 500 ppm of tested compound, preventive spray, evaluated 11 days after inoculation, read-out: efficacy
assay.endpoint: pest or weed control at 500 µg/mL

For orientation, consider the following solved cases.
- molecule: "FC(F)c1nnc(-c2cnc(OC3(c4ccccc4)CC3)nc2)o1"
  reading: "70 to 79%"
- molecule: "FC(F)c1nnc(-c2cnc(NC3(c4cccc(Cl)c4)CCC3)nc2)o1"
  reading: "90 to 100%"
- molecule: "COc1ccc(C2(Nc3ncc(-c4nnc(C(F)F)o4)cn3)CC2)cc1"
  reading: "90 to 100%"
- molecule: "CC(C)(Nc1ncc(-c2nnc(C(F)F)o2)cn1)c1ccc(F)cc1"
  reading: "90 to 100%"

Find the recorded pest or weed control at 500 µg/mL belonging to CC(Oc1ncc(-c2nnc(C(F)F)o2)cn1)c1ccc(F)cc1 (racemic) and report it.
70 to 79%

Query (molecule): Fc1cccc(F)c1C1(Nc2ncc(-c3nnc(C(F)F)o3)cn2)CCC1 ; field requested: pest or weed control at 500 µg/mL
90 to 100%

Sample CCC(Nc1ncc(-c2nnc(C(F)F)o2)cn1)c1ccccc1 (racemic) — what was its pest or weed control at 500 µg/mL?
90 to 100%

Quick one: pest or weed control at 500 µg/mL for CN(Nc1ncc(-c2nnc(C(F)F)o2)cn1)c1ccccc1 ?
70 to 79%

Requested field: pest or weed control at 500 µg/mL. Item: Fc1ccccc1C1(Nc2ncc(-c3nnc(C(F)(F)F)o3)cn2)CC1
90 to 100%

Return reported pest or weed control at 500 µg/mL; argument: FC(F)c1nnc(-c2cnc(NC3(c4ccccn4)CCC3)nc2)o1
90 to 100%

I am curious: what pest or weed control at 500 µg/mL value has been reported for FC(F)c1nnc(-c2cnc(Nc3ccccc3-c3ccccc3)nc2)o1 ?
90 to 100%
